test system: OAT1/3; test: Bottom-up IVIVE of CLint,sec, CLsec and CLr, relative expression factor (REF) approach; set-up: species or system human; details: REF approach
Measured CLsec Predicted 4% HSA, listed per entry for reference.

The following compounds have reported results that may help.
CC(C)c1nc(N(C)S(C)(=O)=O)nc(-c2ccc(F)cc2)c1/C=C/[C@@H](O)C[C@@H](O)CC(=O)O : 1.96 L/h
O=C(NC[C@H]1CN(c2ccc(N3CCOCC3=O)cc2)C(=O)O1)c1ccc(Cl)s1 : 4.32 L/h
Cc1ncc(CO)c(C(=O)O)c1O : 1.05 L/h
CCCc1nc(C(C)(C)O)c(C(=O)O)n1Cc1ccc(-c2ccccc2-c2nnn[nH]2)cc1 : 0.74 L/h

Now let's try a different one.
What measured CLsec Predicted 4% HSA goes with `Nc1ncnc2c1ncn2CCOCP(=O)(O)O` ? 21.8 L/h

====

test system: OAT3; experiment: clinical; conditions: human
Reported Property: microsomal CLint (µL/min/mg)
Expressed in µL/min/mg, but write only the number.

Which measured microsomal CLint belongs to CCC(CC)O[C@@H]1C=C(C(=O)O)C[C@H](N)[C@H]1NC(C)=O [oseltamivir carboxylate] , tested on OAT3? 36.2

====

target: OAT1 (Homo sapiens); experiment: OAT1 uptake study in ciPTEC-OAT1; details: control vs probenecid 300 μM
Sequence (Q4U2R8 whole entry): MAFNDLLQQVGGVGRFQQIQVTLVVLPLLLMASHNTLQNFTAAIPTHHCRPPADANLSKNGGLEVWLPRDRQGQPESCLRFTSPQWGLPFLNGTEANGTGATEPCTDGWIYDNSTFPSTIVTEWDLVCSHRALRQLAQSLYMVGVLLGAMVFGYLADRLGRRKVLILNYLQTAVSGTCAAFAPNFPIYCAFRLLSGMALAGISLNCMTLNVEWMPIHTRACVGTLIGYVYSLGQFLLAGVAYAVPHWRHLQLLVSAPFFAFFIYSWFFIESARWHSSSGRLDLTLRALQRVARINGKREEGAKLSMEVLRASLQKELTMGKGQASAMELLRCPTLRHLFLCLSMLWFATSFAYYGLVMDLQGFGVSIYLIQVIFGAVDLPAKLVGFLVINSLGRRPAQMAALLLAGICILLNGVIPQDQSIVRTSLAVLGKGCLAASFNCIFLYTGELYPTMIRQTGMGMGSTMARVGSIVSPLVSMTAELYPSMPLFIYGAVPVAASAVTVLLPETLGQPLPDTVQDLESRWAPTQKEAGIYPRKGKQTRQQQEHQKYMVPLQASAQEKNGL
Reported Property: OAT1 substrate status (uptake in ciPTEC-OAT1)

Cc1ncc(CO)c(C(=O)O)c1O : dual OAT1/3 substrates
CCCCNc1cc(C(=O)O)cc(S(N)(=O)=O)c1Oc1ccccc1 [bumetanide] : dual OAT1/3 substrates
CCCc1nc(C(C)(C)O)c(C(=O)O)n1Cc1ccc(-c2ccccc2-c2nnn[nH]2)cc1 : dual OAT1/3 substrates

====

target: OAT3 (Homo sapiens); assay: OAT3 uptake study in ciPTEC-OAT3; details: OAT3, 1% HSA vs control
Sequence (Q8TCC7 whole entry): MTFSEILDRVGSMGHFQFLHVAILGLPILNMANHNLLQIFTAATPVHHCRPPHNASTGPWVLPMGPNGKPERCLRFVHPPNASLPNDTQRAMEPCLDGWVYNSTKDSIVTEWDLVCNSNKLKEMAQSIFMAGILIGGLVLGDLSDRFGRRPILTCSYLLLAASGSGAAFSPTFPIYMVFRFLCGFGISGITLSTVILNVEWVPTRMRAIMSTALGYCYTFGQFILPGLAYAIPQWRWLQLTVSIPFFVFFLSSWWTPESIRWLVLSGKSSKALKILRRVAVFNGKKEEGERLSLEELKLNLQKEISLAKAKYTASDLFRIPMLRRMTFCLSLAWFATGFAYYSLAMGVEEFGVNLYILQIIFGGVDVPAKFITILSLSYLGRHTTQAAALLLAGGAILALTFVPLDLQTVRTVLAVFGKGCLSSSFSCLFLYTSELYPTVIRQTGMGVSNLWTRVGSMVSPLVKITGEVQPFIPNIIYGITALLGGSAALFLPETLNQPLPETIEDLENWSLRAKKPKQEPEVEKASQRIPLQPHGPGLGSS
Here, each record is paired with measured ratio of CLint,u,active (R) (HSA/control) 1% data.
Reply with just the number.

CC(C)c1nc(N(C)S(C)(=O)=O)nc(-c2ccc(F)cc2)c1/C=C/[C@@H](O)C[C@@H](O)CC(=O)O : 2.12
O=C(NC[C@H]1CN(c2ccc(N3CCOCC3=O)cc2)C(=O)O1)c1ccc(Cl)s1 : 6.44

Sample `CCCc1nc(C(C)(C)O)c(C(=O)O)n1Cc1ccc(-c2ccccc2-c2nnn[nH]2)cc1` — what was its ratio of CLint,u,active (R) (HSA/control) 1%? 10.5

Consider next the compound `Cc1ncc(CO)c(C(=O)O)c1O` in the same way. 2.64

====

target: human serum albumin (Homo sapiens, UniProt P02768); test: Extent of albumin binding: high throughput equilibrium dialysis (fu,inc, Kd); conditions: estimated using eq 3 from measured fu,inc, mean ± SD
Sequence (P02768 25-609): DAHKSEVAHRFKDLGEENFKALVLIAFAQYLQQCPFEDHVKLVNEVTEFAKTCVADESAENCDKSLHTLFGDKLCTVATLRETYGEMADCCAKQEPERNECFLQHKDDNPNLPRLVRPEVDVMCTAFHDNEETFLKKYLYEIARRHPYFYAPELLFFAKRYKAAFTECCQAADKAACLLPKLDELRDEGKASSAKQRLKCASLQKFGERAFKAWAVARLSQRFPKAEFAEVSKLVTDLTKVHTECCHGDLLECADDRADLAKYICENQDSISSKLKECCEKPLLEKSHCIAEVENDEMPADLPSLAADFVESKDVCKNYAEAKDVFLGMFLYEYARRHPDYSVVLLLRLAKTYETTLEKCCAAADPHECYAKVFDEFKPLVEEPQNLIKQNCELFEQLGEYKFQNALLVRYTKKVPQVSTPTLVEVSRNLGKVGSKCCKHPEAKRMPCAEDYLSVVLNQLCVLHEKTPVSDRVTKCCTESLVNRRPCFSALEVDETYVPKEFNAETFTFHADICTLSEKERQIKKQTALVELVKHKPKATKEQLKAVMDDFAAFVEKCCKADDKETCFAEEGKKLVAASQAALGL
Just a reminder that ties go to false: only Kd strictly below 60 µM counts as true.

CCCc1nc(C(C)(C)O)c(C(=O)O)n1Cc1ccc(-c2ccccc2-c2nnn[nH]2)cc1 : true

Strictly below 60 µM: is that where Kd of `O=C(NC[C@H]1CN(c2ccc(N3CCOCC3=O)cc2)C(=O)O1)c1ccc(Cl)s1` sits? true

Next compound: CCCCNc1cc(C(=O)O)cc(S(N)(=O)=O)c1Oc1ccccc1 [bumetanide] true

And the next one, `Cc1ncc(CO)c(C(=O)O)c1O` ? true

Also `CC(C)c1nc(N(C)S(C)(=O)=O)nc(-c2ccc(F)cc2)c1/C=C/[C@@H](O)C[C@@H](O)CC(=O)O` ? false
